The reported numbers originate from patent US20250114345A1.

Molecular target: p300 (Homo sapiens, UniProt Q09472)
Construct: host or cells: A549 P300 HiBit cells
Sequence (Q09472 whole entry): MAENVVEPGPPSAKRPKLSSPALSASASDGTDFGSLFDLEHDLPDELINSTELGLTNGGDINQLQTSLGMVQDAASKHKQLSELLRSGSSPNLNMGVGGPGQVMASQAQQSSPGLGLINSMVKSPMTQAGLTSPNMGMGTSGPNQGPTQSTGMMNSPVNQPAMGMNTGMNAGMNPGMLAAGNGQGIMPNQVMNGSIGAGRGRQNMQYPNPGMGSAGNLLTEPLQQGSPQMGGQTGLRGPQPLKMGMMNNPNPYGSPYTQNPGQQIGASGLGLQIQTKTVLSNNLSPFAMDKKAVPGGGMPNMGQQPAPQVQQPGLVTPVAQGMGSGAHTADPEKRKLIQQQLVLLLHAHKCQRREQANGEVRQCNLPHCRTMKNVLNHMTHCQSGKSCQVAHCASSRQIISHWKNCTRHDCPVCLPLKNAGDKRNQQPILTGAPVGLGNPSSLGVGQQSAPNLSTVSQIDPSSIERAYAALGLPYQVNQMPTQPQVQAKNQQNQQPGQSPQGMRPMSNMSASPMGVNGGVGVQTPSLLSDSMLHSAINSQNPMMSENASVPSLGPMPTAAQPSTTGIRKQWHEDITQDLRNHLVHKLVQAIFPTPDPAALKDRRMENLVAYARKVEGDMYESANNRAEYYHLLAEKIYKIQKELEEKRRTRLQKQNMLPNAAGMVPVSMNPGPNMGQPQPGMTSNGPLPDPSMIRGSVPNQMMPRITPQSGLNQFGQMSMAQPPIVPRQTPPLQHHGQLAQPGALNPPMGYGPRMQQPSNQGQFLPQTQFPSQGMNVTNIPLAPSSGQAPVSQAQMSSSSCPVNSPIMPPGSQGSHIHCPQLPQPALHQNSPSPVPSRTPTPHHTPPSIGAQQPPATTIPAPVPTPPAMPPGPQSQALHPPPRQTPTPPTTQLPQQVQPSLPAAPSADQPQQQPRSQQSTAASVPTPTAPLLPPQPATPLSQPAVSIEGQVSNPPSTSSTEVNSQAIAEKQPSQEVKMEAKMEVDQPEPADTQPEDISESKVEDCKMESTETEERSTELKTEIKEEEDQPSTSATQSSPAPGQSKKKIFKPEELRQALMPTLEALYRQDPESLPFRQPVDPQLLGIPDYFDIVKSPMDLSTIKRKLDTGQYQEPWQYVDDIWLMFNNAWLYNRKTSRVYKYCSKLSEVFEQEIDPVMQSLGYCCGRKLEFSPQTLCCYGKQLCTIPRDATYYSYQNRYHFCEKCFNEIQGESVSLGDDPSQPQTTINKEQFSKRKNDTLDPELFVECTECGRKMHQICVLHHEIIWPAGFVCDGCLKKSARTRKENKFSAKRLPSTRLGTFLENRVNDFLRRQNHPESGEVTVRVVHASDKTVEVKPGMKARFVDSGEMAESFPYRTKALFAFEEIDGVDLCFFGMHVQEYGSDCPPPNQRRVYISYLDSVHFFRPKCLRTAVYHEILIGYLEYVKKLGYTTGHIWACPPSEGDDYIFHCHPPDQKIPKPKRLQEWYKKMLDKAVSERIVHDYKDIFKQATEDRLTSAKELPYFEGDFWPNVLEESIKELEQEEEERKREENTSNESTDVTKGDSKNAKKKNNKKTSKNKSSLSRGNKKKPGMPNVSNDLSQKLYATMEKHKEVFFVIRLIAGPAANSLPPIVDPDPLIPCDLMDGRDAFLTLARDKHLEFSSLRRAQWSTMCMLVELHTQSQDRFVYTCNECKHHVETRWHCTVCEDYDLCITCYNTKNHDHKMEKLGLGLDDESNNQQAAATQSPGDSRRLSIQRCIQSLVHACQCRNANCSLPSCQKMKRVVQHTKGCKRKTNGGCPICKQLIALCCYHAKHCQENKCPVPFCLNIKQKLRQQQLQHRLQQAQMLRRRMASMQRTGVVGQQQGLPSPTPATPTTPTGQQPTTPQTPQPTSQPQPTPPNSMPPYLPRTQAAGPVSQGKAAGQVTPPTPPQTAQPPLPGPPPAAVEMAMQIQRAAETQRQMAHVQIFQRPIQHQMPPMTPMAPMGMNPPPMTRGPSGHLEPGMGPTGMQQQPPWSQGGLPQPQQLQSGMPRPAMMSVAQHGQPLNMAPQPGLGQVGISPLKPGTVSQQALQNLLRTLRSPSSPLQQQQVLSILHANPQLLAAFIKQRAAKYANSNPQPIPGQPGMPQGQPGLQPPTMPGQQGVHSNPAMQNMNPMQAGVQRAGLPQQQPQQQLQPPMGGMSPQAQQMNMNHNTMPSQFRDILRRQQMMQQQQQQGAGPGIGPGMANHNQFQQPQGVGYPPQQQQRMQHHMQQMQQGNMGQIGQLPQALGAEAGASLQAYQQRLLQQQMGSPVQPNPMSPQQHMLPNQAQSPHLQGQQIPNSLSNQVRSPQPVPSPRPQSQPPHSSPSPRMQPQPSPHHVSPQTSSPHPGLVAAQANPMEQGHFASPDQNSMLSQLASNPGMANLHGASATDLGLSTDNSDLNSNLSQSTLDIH
Assay: P300 degradation, HiBit technology in A549 P300 HiBit cells (2 h)
Assay type: cell-based
Conditions: A549 P300 HiBit cells, 2 hrs post treatment
measurementKind: DC50

>>> val("CC(C)c1cc(N2CCOc3cc(-c4ccc(C(=O)NCC#Cc5ccn6ncc(C7CCC(=O)NC7=O)c6c5)nc4)ncc32)cc2c1n(C)c(=O)n2C (stereo not shown)")
"< 1 nM"
>>> val("CC(C)c1cc(-c2cccc3cc(-c4ccc(C(=O)NCC#Cc5nc6c(C7CCC(=O)NC7=O)cccc6n5C)nc4)ncc23)cc2c1n(C)c(=O)n2C (stereo not shown)")
"> 1000 nM"
>>> val("Cc1cc(-c2ncc3c(n2)CCCN3c2cccc3c2cc(C)c(=O)n3C)cnc1C(=O)NCC#Cc1ccc2occ(C3CCC(=O)NC3=O)c2c1 (stereo not shown)")
"1 to 9.9 nM"
>>> val("Cn1c(=O)n(C)c2cc(N3CCOc4nc(-c5ccc(C(=O)NCC#Cc6cc7cccc(C8CCC(=O)NC8=O)c7o6)nc5)ncc43)ccc21 (stereo not shown)")
"10 to 99 nM"

* * *

# Dmax listing for each entry below
Molecular target: p300 (Homo sapiens, UniProt Q09472)
Construct: host or cells: A549 P300 HiBit cells
Test: P300 degradation, HiBit technology in A549 P300 HiBit cells (2 h)
Type: cell-based
Details: A549, A549 P300 HiBit cells, 2 hrs post treatment
measurementKind: Dmax

>>> val("CC(C)c1cc(-c2cccc3cc(-c4ccc(C(=O)NCC#Cc5ccc6occ(C78CC(C7)C(=O)NC8=O)c6c5)nc4)ncc23)cc2c1n(C)c(=O)n2C [Example A212]")
"> 80%"
>>> val("Cc1cc(-c2cc3c(cc2F)N(c2ccc4c(c2)n(C)c(=O)n4C)CCO3)cnc1C(=O)NCC#Cc1ccc2occ(C3CCC(=O)NC3=O)c2c1 (stereo not drawn) [Example A111]")
"> 80%"
>>> val("Cc1cc2c(N3CCN(C)c4nc(-c5ccc(C(=O)NCC#Cc6cc7c(C8CCC(=O)NC8=O)nccc7o6)nc5)ncc43)cccc2n(C)c1=O (stereo not drawn) [Example B32]")
"> 80%"
>>> val("Cc1cc2c(N3CCCc4nc(-c5ccc(C(=O)NCC#Cc6cc7c(C8CCC(=O)NC8=O)cccc7o6)nc5)ncc43)cc(Cl)cc2n(C)c1=O (stereo not drawn) [Example B126]")
"> 80%"
>>> val("Cc1cc2c(N3CCCc4cc(-c5ccc(C(=O)NCC#Cc6ccc7occ(C8CCC(=O)NC8=O)c7c6)nc5)nnc43)cc(C3CCOCC3)cc2n(C)c1=O (stereo not drawn) [Example B64]")
"> 80%"
>>> val("Cc1cc2c(N3CCOc4nc(-c5ccc(C(=O)NCC#Cc6cc7c(C8CCC(=O)NC8=O)cccc7o6)nc5)ncc43)cc(C3CCOCC3)nc2n(C)c1=O (stereo not drawn) [Example B166]")
"60 to 79%"
>>> val("CCc1cc(N(C)c2ccn(-c3cnc(C(=O)NCC#Cc4cccc(NC5CCC(=O)NC5=O)c4)c(C)c3)c(=O)c2)c2cc(C)c(=O)n(C)c2c1 (stereo not drawn) [Example B152]")
"> 80%"
>>> val("CCn1c(=O)n(C)c2c(N3CCOCC3)nc(-c3cccc4cc(-c5ccc(C(=O)NCC#Cc6cc7c(C8CCC(=O)NC8=O)cccc7o6)nc5)ncc34)cc21 (stereo not drawn) [Example A260]")
"> 80%"
>>> val("Cc1cc(-c2ncc3c(n2)OCCN3c2ccc3c(c2)n(C)c(=O)n3C)cnc1C(=O)NCC#Cc1ccc2occ(C34CC(C3)C(=O)NC4=O)c2c1 [Example A262]")
"> 80%"
>>> val("Cc1cc2c(N3CCCc4nc(-c5ccc(C(=O)NCC#Cc6ccc7occ(C8CCC(=O)NC8=O)c7c6)nc5)ncc43)cc(Cl)cc2n(C)c1=O (stereo not drawn) [Example B119]")
"60 to 79%"
>>> val("COC1CN(c2cc3c(cc(C)c(=O)n3C)c(-c3cccc4cc(-c5ccc(C(=O)NCC#Cc6ccc7occ(C8CCC(=O)NC8=O)c7c6)nc5)ncc34)n2)C1 (stereo not drawn) [Example B146]")
"> 80%"
>>> val("CC(C)c1cc(N2CCCc3cc(-c4ccc(C(=O)NCC#Cc5ccc6occ(C7CCC(=O)NC7=O)c6c5)nc4)c(F)cc32)cc2c1n(C)c(=O)n2C (stereo not drawn) [Example A117]")
"> 80%"

* * *

Molecular target: p300 (Homo sapiens)
Construct: host or cells: A549 P300 HiBit cells
Test: P300 degradation, HiBit technology in A549 P300 HiBit cells (2 h)
Assay type: cell-based
Details: A549, A549 P300 HiBit cells, 2 hrs post treatment
measurementKind: Dmax

>>> val("CCc1cc(-c2cccc3cc(-c4ccc(C(=O)NCC#Cc5ccc6c(c5)ncn6C5CCC(=O)NC5=O)nc4)ncc23)c2cc(C)c(=O)n(C)c2c1 (stereo not shown)")
"< 20%"
>>> val("Cc1cc2c(-c3cccc4cc(-c5ccc(C(=O)NCC#Cc6ccc7occ(C8CCC(=O)NC8=O)c7c6)nc5)ncc34)nc(C3CCOCC3)cc2n(C)c1=O (stereo not shown)")
"> 80%"
>>> val("Cc1cc2c(-c3cccc4cc(-c5ccc(C(=O)NCC#Cc6ccc7occ(C8CCC(=O)NC8=O)c7c6)nc5)ncc34)nc(N3CC(O)C3)cc2n(C)c1=O (stereo not shown)")
"> 80%"
>>> val("Cc1cc2c(N3CCCc4nc(-c5ccc(C(=O)NCC#Cc6cc7c(C8CCC(=O)NC8=O)nccc7o6)nc5)ncc43)nc(N3CCC3)cc2n(C)c1=O (stereo not shown)")
"> 80%"
>>> val("CC(C)c1cc(-c2cccc3cc(-c4ccc(C(=O)NCC#Cc5ccc6nnn(C7CCC(=O)NC7=O)c6c5)nc4)ncc23)cc2c1n(C)c(=O)n2C (stereo not shown)")
"> 80%"
>>> val("CC(C)c1cc(-c2cccc3cc(-c4ccc(C(=O)NCC#Cc5ccc6c(c5)n(C5CCC(=O)NC5=O)c(=O)n6C)nc4)ncc23)cc2c1n(C)c(=O)n2C (stereo not shown)")
"> 80%"
>>> val("Cc1cc2c(N3CCCc4nc(-c5ccc(C(=O)NCC#Cc6ccc7occ(C8CCC(=O)NC8=O)c7c6)nc5)ncc43)nc(C(C)C)cc2n(C)c1=O (stereo not shown)")
"60 to 79%"

* * *

Molecular target: p300 (Homo sapiens)
Construct: host or cells: A549 P300 HiBit cells
Test: P300 degradation, HiBit technology in A549 P300 HiBit cells (2 h)
Type: cell-based
Details: A549 P300 HiBit cells, 2 hrs post treatment
measurementKind: DC50

>>> val("[2H]C1COCCC1([2H])c1cc(N2CCCc3nc(-c4ccc(C(=O)NCC#Cc5cc6c(C7CCC(=O)NC7=O)cccc6o5)nc4)ncc32)c2cc(C)c(=O)n(C)c2c1 (stereo not shown)")
"1 to 9.9 nM"
>>> val("Cc1cc2c(N3CCCc4nc(-c5ccc(C(=O)NCC#Cc6cc7c(C8CCC(=O)NC8=O)c(F)ccc7o6)nc5)ncc43)cc(C3CCOCC3)cc2n(C)c1=O (stereo not shown)")
"< 1 nM"
>>> val("CC(C)c1cc(-c2cccc3cc(-c4ccc(C(=O)NCC#Cc5ccc6ncnc(C7CCC(=O)NC7=O)c6c5)nc4)ncc23)cc2c1n(C)c(=O)n2C (stereo not shown)")
"10 to 99 nM"
>>> val("CC(C)c1cc(-c2cccc3cc(-c4ccc(C(=O)NCC#Cc5ccc6oc(=O)n(C7CCC(=O)NC7=O)c6c5)nc4)ncc23)cc2c1n(C)c(=O)n2C (stereo not shown)")
"1 to 9.9 nM"
>>> val("Cc1cc2c(N3CCCc4nc(-c5ccc(C(=O)NCC#Cc6cc7c(C8CCC(=O)NC8=O)nccc7o6)nc5)ncc43)cc(C(C)C)cc2n(C)c1=O (stereo not shown)")
"1 to 9.9 nM"
>>> val("CCC(=O)N1CCC(c2cc(N3CCCc4nc(-c5ccc(C(=O)NCC#Cc6ccc7occ(C8CCC(=O)NC8=O)c7c6)nc5)ncc43)c3cc(C)c(=O)n(C)c3c2)CC1 (stereo not shown)")
"< 1 nM"
>>> val("CC(C)c1cc(N2CCC(F)(F)c3cc(-c4ccc(C(=O)NCC#Cc5ccc6occ(C7CCC(=O)NC7=O)c6c5)nc4)ccc32)cc2c1n(C)c(=O)n2C (stereo not shown)")
"10 to 99 nM"
>>> val("Cc1cc(-c2cc(N(C)C)c(N(C)c3cc(C4CCOCC4)c4c(c3)n(C)c(=O)n4C)cn2)cnc1C(=O)NCC#Cc1cc2c(C3CCC(=O)NC3=O)cccc2o1 (stereo not shown)")
"> 1000 nM"
>>> val("Cc1cc(-c2cc(F)c(Nc3cc(C4CCOCC4)c4c(c3)n(C)c(=O)n4C)cc2C(F)F)cnc1C(=O)NCC#Cc1cc2c(C3CCC(=O)NC3=O)cccc2o1 (stereo not shown)")
"1 to 9.9 nM"
>>> val("Cc1cc(-c2ncc3c(n2)CCCN3c2ccc3c(c2)n(C)c(=O)n3C)cnc1C(=O)NCC#Cc1cc2c(C3CCC(=O)NC3=O)cccc2o1 (stereo not shown)")
"1 to 9.9 nM"
>>> val("CCc1cc(-c2cccc3cc(-c4ccc(C(=O)NCC#Cc5ccc6c(c5)ncn6C5CCC(=O)NC5=O)nc4)ncc23)c2cc(C)c(=O)n(C)c2c1 (stereo not shown)")
"> 1000 nM"
>>> val("Cc1cc(-c2ncc3c(n2)OCCN3c2ccc3c(c2)n(C)c(=O)n3C)cnc1C(=O)NCC#Cc1cc2c(C3CCC(=O)NC3=O)cccc2o1 (stereo not shown)")
"1 to 9.9 nM"
>>> val("CC(C)c1cc(-c2cccc3cc(-c4ccc(C(=O)NCC#Cc5cc6c(F)ccc(C7CCC(=O)NC7=O)c6o5)nc4)ncc23)cc2c1n(C)c(=O)n2C (stereo not shown)")
"10 to 99 nM"
